EC50 of ADCC cytotoxicity (primary NK cells, LDH), Huh-7 cells listing for selected binders.
# assay target: human GPC3 on cells (human, UniProt P51654 25-554)
# protocol: cell-based or functional assay
Just the number please, in nM, no unit attached.

# binder 52H5D3B8-20#-VH2+VL3 (antibody, V domains shown) VH: QVQLVQSGAEVKKPGASVKVSCKASGYRFTDYEMHWVRQAPGQGLEWIGAIHPGSGGTAYNQLFKGRVTMTADTSTSTVYMELSSLRSEDTAVYYCTRYYSYAYWGQGTLVTVSS VL: DIVMTQTPLSLSVTPGQPASISCRSSQSLVHSNGNTYLQWYLQKPGQSPKLLIYKVSNRFPGVPDRFSGSGSGTDFTLKISRVEAEDVGVYYCVESIHVPYTFGGGTKLEIK ; its EC50 of ADCC cytotoxicity (primary NK cells, LDH), Huh-7 cells = 0.0287

# binder 52H5D3B8-19#-VH2+VL3 (antibody, V domains shown) VH: QVQLVQSGAEVKKPGASVKVSCKASGYTFTGYEMHWVRQAPGQGLEWIGAIHPGSGGTAYNQKFKGRVTMTADTSTSTVYMELSSLRSEDTAVYYCTRYYSYAYWGQGTLVTVSS VL: DIVMTQTPLSLSVTPGQPASISCRSSQSLVHSNGNTYLQWYLQKPGQSPKLLIYKVSNRFAGVPDRFSGSGSGTDFTLKISRVEAEDVGVYYCVESIHVPYTFGGGTKLEIK ; its EC50 of ADCC cytotoxicity (primary NK cells, LDH), Huh-7 cells = 0.0328

# binder 52H5D3B8-6#-VH1+VL1 (antibody, V domains shown, humanized) VH: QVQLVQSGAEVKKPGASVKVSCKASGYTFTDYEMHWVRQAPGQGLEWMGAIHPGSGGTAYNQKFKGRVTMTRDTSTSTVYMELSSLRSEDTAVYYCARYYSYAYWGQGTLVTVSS VL: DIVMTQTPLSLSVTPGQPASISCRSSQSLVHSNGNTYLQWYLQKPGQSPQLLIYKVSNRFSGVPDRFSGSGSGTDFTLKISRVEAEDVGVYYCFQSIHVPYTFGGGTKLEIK ; its EC50 of ADCC cytotoxicity (primary NK cells, LDH), Huh-7 cells = 0.108

# binder 52H5D3B8-6#-VH2+VL3 (antibody, V domains shown, humanized) VH: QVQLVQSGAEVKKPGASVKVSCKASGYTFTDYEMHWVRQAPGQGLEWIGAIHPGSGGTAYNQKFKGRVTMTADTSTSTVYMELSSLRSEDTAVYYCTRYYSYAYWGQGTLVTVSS VL: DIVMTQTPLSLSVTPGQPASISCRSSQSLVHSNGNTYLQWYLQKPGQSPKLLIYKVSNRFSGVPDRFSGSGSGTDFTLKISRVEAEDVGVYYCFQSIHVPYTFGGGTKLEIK ; its EC50 of ADCC cytotoxicity (primary NK cells, LDH), Huh-7 cells = 0.106
